# Assay System: Dihydrofolate reductase (Homo sapiens)
# Sequence (P00374 whole entry): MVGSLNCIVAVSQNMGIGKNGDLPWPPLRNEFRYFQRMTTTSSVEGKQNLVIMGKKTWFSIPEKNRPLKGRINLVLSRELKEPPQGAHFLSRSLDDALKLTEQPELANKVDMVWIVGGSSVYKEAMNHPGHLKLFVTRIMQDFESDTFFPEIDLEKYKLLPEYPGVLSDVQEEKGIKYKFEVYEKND
Value Type: Ki
For clarity, give the value followed by its unit.

Asked: Give Dihydrofolate reductase (Homo sapiens) Ki for C#CCC(Cc1cnc2nc(N)nc(N)c2n1)c1ccc(C(=O)N[C@@H](CCC(=O)O)C(=O)O)cc1 (stereo partly specified) [PRALATREXATE]
Given back: 0.0134 nM

====

# Procedure Text: Inhibition of SARS-CoV Papain-like protease
# Design: species or system Severe acute respiratory syndrome-related coronavirus
Value Type: pIC50
pIC50 here: minus log base 10 of the concentration, concentration in moles per litre.

Asked: Name the recorded pIC50 for Nc1nc2[nH]cnc2c(=S)[nH]1 .
Given back: 4.60

====

# Procedure Text: Antiproliferative activity against human PER-255 cells assessed as cell growth inhibition incubated for 4 days by MTT assay
# Format: functional, cell-based
# Condition Label: PER-255, 96 h
Value Type: IC50 (µM)
Number only, in µM; omit the unit.

Asked: Name the recorded IC50 for COc1nc(N)nc2c1ncn2[C@@H]1O[C@H](CO)[C@@H](O)[C@@H]1O .
Given back: 0.067

====

# Procedure Text: Inhibition of Ribonucleotide reductase (unknown origin)
# Design: species or system Homo sapiens
Value Type: pIC50
pIC50 here: minus log base 10 of the concentration, concentration in moles per litre.

Asked: Name the recorded pIC50 for Nc1nc(Cl)nc2c1ncn2[C@@H]1O[C@H](CO)[C@@H](O)[C@@H]1F [CLOFARABINE] .
Given back: 7.19
